Here, each record is paired with measured relative viability data.
system: NCI-H727; test: relative viability (nuclei count vs DMSO), 5 days (fraction); higher = more cells survive; settings: first compound 0.5 µM
Experimental Readout: relative viability

{"Molecule": "CC1(C)CCC(c2ccc(Cl)cc2)=C(CN2CCN(c3ccc(C(=O)NS(=O)(=O)c4ccc(N[C@H](CCN5CCOCC5)CSc5ccccc5)c(S(=O)(=O)C(F)(F)F)c4)cc3)CC2)C1 [Navitoclax] + CC(=O)Nc1cccc(-n2c(=O)n(C3CC3)c(=O)c3c(Nc4ccc(I)cc4F)n(C)c(=O)c(C)c32)c1 [Trametinib] (partner 0.02 µM)", "Result": 0.403}
{"Molecule": "CC1(C)CCC(c2ccc(Cl)cc2)=C(CN2CCN(c3ccc(C(=O)NS(=O)(=O)c4ccc(N[C@H](CCN5CCOCC5)CSc5ccccc5)c(S(=O)(=O)C(F)(F)F)c4)cc3)CC2)C1 [Navitoclax] + O=C(CCCCCCC(=O)Nc1ccccc1)NO [Vorinostat] (partner 1 µM)", "Result": 1.16}
{"Molecule": "CC1(C)CCC(c2ccc(Cl)cc2)=C(CN2CCN(c3ccc(C(=O)NS(=O)(=O)c4ccc(N[C@H](CCN5CCOCC5)CSc5ccccc5)c(S(=O)(=O)C(F)(F)F)c4)cc3)CC2)C1 [Navitoclax] + Cc1nc(NC(=O)N2CCC[C@H]2C(N)=O)sc1-c1ccnc(C(C)(C)C(F)(F)F)c1 [Alpelisib] (partner 2 µM)", "Result": 0.434}

----------
tested on: EMC-BAC-2; test: relative viability (nuclei count vs DMSO), 5 days (fraction); higher = more cells survive; details: first compound 0.05 µM
Here, each record is paired with measured relative viability data.

{"Compound": "CC1(C)CCC(c2ccc(Cl)cc2)=C(CN2CCN(c3ccc(C(=O)NS(=O)(=O)c4ccc(N[C@H](CCN5CCOCC5)CSc5ccccc5)c(S(=O)(=O)C(F)(F)F)c4)cc3)CC2)C1 [Navitoclax] + COc1cc2c(Oc3ccc(NC(=O)C4(C(=O)Nc5ccc(F)cc5)CC4)cc3F)ccnc2cc1OCCCN1CCOCC1 [Foretinib] (partner 0.25 µM)", "System Name": "EMC-BAC-2", "relative viability": 0.96}
{"Compound": "CC1(C)CCC(c2ccc(Cl)cc2)=C(CN2CCN(c3ccc(C(=O)NS(=O)(=O)c4ccc(N[C@H](CCN5CCOCC5)CSc5ccccc5)c(S(=O)(=O)C(F)(F)F)c4)cc3)CC2)C1 [Navitoclax] + Cc1nc(Nc2ncc(C(=O)Nc3c(C)cccc3Cl)s2)cc(N2CCN(CCO)CC2)n1 [Dasatinib] (partner 0.075 µM)", "System Name": "EMC-BAC-2", "relative viability": 0.312}
{"Compound": "CC1(C)CCC(c2ccc(Cl)cc2)=C(CN2CCN(c3ccc(C(=O)NS(=O)(=O)c4ccc(N[C@H](CCN5CCOCC5)CSc5ccccc5)c(S(=O)(=O)C(F)(F)F)c4)cc3)CC2)C1 [Navitoclax] + COc1cccc2cc(-c3nc([C@H]4CC[C@H](C(=O)O)CC4)n4ncnc(N)c34)[nH]c12 [OSI-027] (partner 0.5 µM)", "System Name": "EMC-BAC-2", "relative viability": 0.382}

----------
Here, each record is paired with measured relative viability data.
test system: LK-2; assay: relative viability (nuclei count vs DMSO), 5 days (fraction); higher = more cells survive; settings: first compound 0.253 µM
Experimental Readout: relative viability

{"Molecule": "C=C1C(=O)O[C@@H](CCCCCCCC)[C@@H]1C(=O)O [C-75] + CCNC(=O)c1noc(-c2cc(C(C)C)c(O)cc2O)c1-c1ccc(CN2CCOCC2)cc1 [Luminespib] (partner 0.01 µM)", "System Name": "LK-2", "Result": 0.195}
{"Molecule": "Oc1nc(-c2ccc(C(F)(F)F)cc2)nc2c1CSCC2 [XAV939] + CC(=O)Nc1cccc(-n2c(=O)n(C3CC3)c(=O)c3c(Nc4ccc(I)cc4F)n(C)c(=O)c(C)c32)c1 [Trametinib] (partner 0.02 µM)", "System Name": "LK-2", "Result": 0.792}
{"Molecule": "C=C1C(=O)O[C@@H](CCCCCCCC)[C@@H]1C(=O)O [C-75] + O=C(CCCCCCC(=O)Nc1ccccc1)NO [Vorinostat] (partner 1 µM)", "System Name": "LK-2", "Result": 0.315}
{"Molecule": "Oc1nc(-c2ccc(C(F)(F)F)cc2)nc2c1CSCC2 [XAV939] + C[C@@H](Oc1cc(-c2cnn(C3CCNCC3)c2)cnc1N)c1c(Cl)ccc(F)c1Cl [Crizotinib] (partner 1 µM)", "System Name": "LK-2", "Result": 0.224}
{"Molecule": "Oc1nc(-c2ccc(C(F)(F)F)cc2)nc2c1CSCC2 [XAV939] + O=C(c1cc(Cc2n[nH]c(=O)c3ccccc23)ccc1F)N1CCN(C(=O)C2CC2)CC1 [Olaparib] (partner 8 µM)", "System Name": "LK-2", "Result": 0.669}
{"Molecule": "Oc1nc(-c2ccc(C(F)(F)F)cc2)nc2c1CSCC2 [XAV939] + Cc1nc(Nc2ncc(C(=O)Nc3c(C)cccc3Cl)s2)cc(N2CCN(CCO)CC2)n1 [Dasatinib] (partner 0.075 µM)", "System Name": "LK-2", "Result": 0.31}
{"Molecule": "C=C1C(=O)O[C@@H](CCCCCCCC)[C@@H]1C(=O)O [C-75] + Nc1nc2[nH]cc(CCc3ccc(C(=O)N[C@@H](CCC(=O)O)C(=O)O)cc3)c2c(=O)[nH]1 [Pemetrexed] (partner 0.2 µM)", "System Name": "LK-2", "Result": 0.301}
{"Molecule": "C=C1C(=O)O[C@@H](CCCCCCCC)[C@@H]1C(=O)O [C-75] + Cc1cc(Nc2cc(N3CCN(C)CC3)nc(Sc3ccc(NC(=O)C4CC4)cc3)n2)n[nH]1 [Tozasertib] (partner 0.1 µM)", "System Name": "LK-2", "Result": 0.157}
{"Molecule": "C=C1C(=O)O[C@@H](CCCCCCCC)[C@@H]1C(=O)O [C-75] + C[C@]1(O)C[C@@H](c2nc(-c3ccc4ccc(-c5ccccc5)nc4c3)c3c(N)nccn32)C1 [Linsitinib] (partner 1 µM)", "System Name": "LK-2", "Result": 0.785}
{"Molecule": "C=C1C(=O)O[C@@H](CCCCCCCC)[C@@H]1C(=O)O [C-75] + C[C@@H](Oc1cc(-c2cnn(C3CCNCC3)c2)cnc1N)c1c(Cl)ccc(F)c1Cl [Crizotinib] (partner 1 µM)", "System Name": "LK-2", "Result": 0.208}
{"Molecule": "Oc1nc(-c2ccc(C(F)(F)F)cc2)nc2c1CSCC2 [XAV939] + CS(=O)(=O)N1CCN(Cc2cc3nc(-c4cccc5[nH]ncc45)nc(N4CCOCC4)c3s2)CC1 [Pictilisib] (partner 1 µM)", "System Name": "LK-2", "Result": 0.505}

----------
system: NCI-H838; experiment: relative viability (nuclei count vs DMSO), 5 days (fraction); higher = more cells survive; details: first compound 0.04 µM
Class (by relative viability) -- bin 1: < 0.7; bin 2: ≥ 0.7 and < 0.9; bin 3: ≥ 0.9

{"Compound": "O=C(O)c1ccc(-c2c[nH]c3ncc(-c4ccccc4)cc23)cc1C1CCCC1 + C[C@]1(O)C[C@@H](c2nc(-c3ccc4ccc(-c5ccccc5)nc4c3)c3c(N)nccn32)C1 [Linsitinib] (partner 1 µM)", "Class Label": "bin 3"}
{"Compound": "O=C(O)c1ccc(-c2c[nH]c3ncc(-c4ccccc4)cc23)cc1C1CCCC1 + CS(=O)(=O)N1CCN(Cc2cc3nc(-c4cccc5[nH]ncc45)nc(N4CCOCC4)c3s2)CC1 [Pictilisib] (partner 1 µM)", "Class Label": "bin 1"}
{"Compound": "O=C(O)c1ccc(-c2c[nH]c3ncc(-c4ccccc4)cc23)cc1C1CCCC1 + COc1cc2c(Oc3ccc(NC(=O)C4(C(=O)Nc5ccc(F)cc5)CC4)cc3F)ccnc2cc1OCCCN1CCOCC1 [Foretinib] (partner 0.25 µM)", "Class Label": "bin 3"}
{"Compound": "O=C(O)c1ccc(-c2c[nH]c3ncc(-c4ccccc4)cc23)cc1C1CCCC1 + Cc1nc(Nc2ncc(C(=O)Nc3c(C)cccc3Cl)s2)cc(N2CCN(CCO)CC2)n1 [Dasatinib] (partner 0.075 µM)", "Class Label": "bin 1"}
{"Compound": "O=C(O)c1ccc(-c2c[nH]c3ncc(-c4ccccc4)cc23)cc1C1CCCC1 + CC(C)C[C@H](NC(=O)[C@H](Cc1ccccc1)NC(=O)c1cnccn1)B(O)O [Bortezomib] (partner 0.002 µM)", "Class Label": "bin 2"}
{"Compound": "O=C(O)c1ccc(-c2c[nH]c3ncc(-c4ccccc4)cc23)cc1C1CCCC1 + Cc1cc(Nc2cc(N3CCN(C)CC3)nc(Sc3ccc(NC(=O)C4CC4)cc3)n2)n[nH]1 [Tozasertib] (partner 0.1 µM)", "Class Label": "bin 1"}
{"Compound": "O=C(O)c1ccc(-c2c[nH]c3ncc(-c4ccccc4)cc23)cc1C1CCCC1 + NC(=O)Nc1cc(-c2cccc(F)c2)sc1C(=O)N[C@H]1CCCNC1 [AZD7762] (partner 0.2 µM)", "Class Label": "bin 3"}
{"Compound": "O=C(O)c1ccc(-c2c[nH]c3ncc(-c4ccccc4)cc23)cc1C1CCCC1 + C[C@@H](Oc1cc(-c2cnn(C3CCNCC3)c2)cnc1N)c1c(Cl)ccc(F)c1Cl [Crizotinib] (partner 1 µM)", "Class Label": "bin 2"}
